- Tested on: HIV-1 (MT-2 cells)
- run_description: Anti-HIV MTT assay, inhibition of HIV-induced cell killing, MT-2 cells
- Type: cell-based, HIV-1 isolates IIIB and/or RF
- assay_setup: Human immunodeficiency virus 1, MT2, 144 h; MT-2 cells (second position), 6 days, 37° C., MTT; read-out: Viral MT-2
The entries below come with measured IC50 values attached.
The figure you give is taken to be in µg/mL; do not add the unit.

Cc1ccc(CC(O)CCc2ccccc2C(=O)N(CCO)C(C)(C)c2ccccc2)c(C(=O)N(CCO)C(C)(C)c2ccccc2)c1 (stereo not shown) [Example 80]
0.68
CCc1ccc(CC(O)CCc2ccccc2C(=O)N(CCO)C(C)(C)c2ccccc2)c(C(=O)N(CCO)C(C)(C)c2ccccc2)c1 (stereo not shown) [Example 89]
1.79
CCC1(N(CCO)C(=O)c2ccccc2CCC(O)Cc2ccc(C)cc2C(=O)N(CCC(O)CO)C(C)(C)c2ccccc2)CCCC1 (stereo not shown) [Example 104]
0.55
CC(C)(c1ccccc1)N(CCO)C(=O)c1ccccc1CCC(O)Cc1ccccc1C(=O)N(CCO)C(C)(C)c1ccccc1 (stereo not shown) [Example 65]
1.76

-- ask Entry CCC1(N(CCO)C(=O)c2ccccc2CCC(O)Cc2ccccc2C(=O)N(CCC(O)CO)C(C)(C)c2ccccc2)CCCC1 (stereo not shown) [Example 100] needs its IC50 filled in; supply it.
-- reply 1.94

-- ask For the compound CCC1(N(CCO)C(=O)c2ccccc2CCC(O)Cc2ccc(C)cc2C(=O)N(CC2CCCO2)C(C)(C)c2ccccc2)CCCC1 (stereo not shown) [Example 115] , report IC50.
-- reply 6.34

====

Below, each entry is listed alongside its reported pIC50.
- target_desc: HIV-1 protease (Human immunodeficiency virus type 1 group M subtype B)
- Construct: purified HIV-1 protease
- run_description: biochemical
- Type: biochemical
- assay_setup: 0.5M NaCl, 50 mM MES pH 5.6, 2% DMSO, 37° C., 200 μM substrate
Just so you know, pIC50 here is -log10 of the concentration in molar units; reply with that number alone.

Sample records with pIC50:
CC(C)(C)N(CCO)C(=O)c1ccccc1CCC(O)Cc1ccccc1C(=O)N(CCO)C(C)(C)c1ccncc1 (centres unmarked)
5.91
CCSc1ccc(CC(O)CCc2ccccc2C(=O)N(CCO)C2(CC)CCCC2)c(C(=O)N(CCO)C(C)(C)c2ccccc2)c1 (centres unmarked)
6.71
Cc1ccc(CCC(O)Cc2ccccc2C(=O)N(CCOCc2ccccc2)C(C)(C)c2ccccc2)c(C(=O)N(CCO)C(C)(C)C)c1 (centres unmarked)
6.45
CCC1(N(CCO)C(=O)c2ccccc2CCC(O)Cc2ccc(C)cc2C(=O)N(CC(CO)CO)C(C)(C)c2ccccc2)CCCC1 (centres unmarked)
6.97
CC(C)(C)NC(=O)c1ccccc1NCC(O)Cc1ccc2ccccc2c1C(=O)NC(C)(C)C (centres unmarked) [Example 51]
3.92

-- ask Give measured pIC50 for CC(C)(C)N(CCO)C(=O)c1ccccc1CCC(O)Cc1ccccc1C(=O)N(Cc1ncc[nH]1)C(C)(C)c1ccccc1 (centres unmarked) (HIV-1 protease (Human immunodeficiency virus type 1 group M subtype B)).
-- reply 6.49

-- ask Provide pIC50, system HIV-1 protease (Human immunodeficiency virus type 1 group M subtype B), entry CC(C)N1CCC(CC(O)CCc2ccc3ccccc3c2C(=O)NC(C)(C)C)=C(C(=O)NC(C)(C)C)C1 (centres unmarked)
-- reply 4.15

-- ask Fill in: pIC50 on HIV-1 protease (Human immunodeficiency virus type 1 group M subtype B), entry CCC1(N(CC2COC(C)(C)OC2)C(=O)c2ccccc2CCC(O)Cc2ccc(C)cc2C(=O)N(CC2COC(C)(C)OC2)C(C)(C)c2ccccc2)CCCC1 (centres unmarked)
-- reply 7.17

-- ask With HIV-1 protease (Human immunodeficiency virus type 1 group M subtype B) as the test system, provide measured pIC50 for this molecule: CCC1(N(CCO)C(=O)c2ccccc2CCC(O)Cc2ccc(C)cc2C(=O)N(CCO)C(C)(C)c2ccc(OCc3cccnc3)cc2)CCCC1 (centres unmarked)
-- reply 6.99

-- ask Under HIV-1 protease (Human immunodeficiency virus type 1 group M subtype B): report pIC50 of CCC1(N(CCO)C(=O)c2ccccc2CCC(O)Cc2ccccc2C(=O)N(CCO)C23CCCCC2CCCC3)CCCC1 (centres unmarked) .
-- reply 6.65

-- ask Jot down pIC50 (HIV-1 protease (Human immunodeficiency virus type 1 group M subtype B)) of CC(C)(C)N(CCO)C(=O)c1ccccc1CCC(=O)C(F)(F)c1ccccc1C(=O)N(CCO)C(C)(C)c1ccccc1 .
-- reply 6.38

-- ask Look up and report pIC50, with HIV-1 protease (Human immunodeficiency virus type 1 group M subtype B) as system, for CC(C)(C)NC(=O)c1ccccc1SCC(O)Cc1ccc2ccccc2c1C(=O)NC(C)(C)C (centres unmarked)
-- reply 4.60

====

- target_desc: HIV-1 protease (Human immunodeficiency virus type 1 group M subtype B)
- Construct: purified HIV-1 protease
- run_description: biochemical
- Assay type: biochemical
- assay_setup: 0.5M NaCl, 50 mM MES pH 5.6, 2% DMSO, 37° C., 200 μM substrate
Items are presented alongside their recorded IC50.
Kindly answer with a numeric value in µM, unit omitted.

Use these answered entries as a reference point.
CC(C)(C)N(CCO)C(=O)c1ccccc1CCC(O)Cc1ccccc1C(=O)N(CCOc1ccncc1)C(C)(C)c1ccccc1 (stereo not shown) [Example 83]
2.5
CC(C)(C)NC(=O)c1cc(C(C)(C)C)ccc1CCC(O)Cc1ccccc1C(=O)N(CCO)C(C)(C)C (stereo not shown) [Example 35]
1.19
CC(C)(C)NC(=O)c1cnccc1CC(O)CCc1ccc2ccccc2c1C(=O)NC(C)(C)C (stereo not shown) [Example 11]
18

The record that follows has no IC50 shown yet.
-- ask Look up and report IC50, with HIV-1 protease (Human immunodeficiency virus type 1 group M subtype B) as system, for CCc1ccc(CC(O)CCc2ccccc2C(=O)N(CCO)C(C)(C)c2ccccc2)c(C(=O)N(CCO)C(C)(C)c2ccccc2)c1 (stereo not shown) [Example 89]
-- reply 0.144

====

- target_desc: HIV-1 protease (Human immunodeficiency virus type 1 group M subtype B, UniProt P04585)
- Construct: purified HIV-1 protease
- run_description: biochemical
- Assay type: biochemical
- assay_setup: 0.5M NaCl, 50 mM MES pH 5.6, 2% DMSO, 37° C., 200 μM substrate
measurement_name: IC50 (µM)
Could you give me the number in µM? Just the number is fine.

Take a look at these entries with their results.
CC(C)(c1ccccc1)N(CCO)C(=O)c1ccccc1CCC(O)Cc1ccccc1C(=O)N(CCO)C(C)(C)c1ccccc1 (stereo not shown)
0.082
CC(C)(C)NC(=O)[C@@H]1C[C@@H]2CCCC[C@@H]2CN1CC(O)CCc1ccccc1C(=O)N(CCO)C(C)(C)C (single isomer, unassigned) [Example 29]
55

Now look at this entry.
-- ask Output measured IC50 for this item: CC(C)(C)N(CCO)C(=O)c1ccccc1CCC(O)CCc1ccccc1C(=O)N(CCO)C(C)(C)C
-- reply 6

====

- Tested on: HIV-1 (MT-2 cells)
- run_description: Anti-HIV MTT assay, inhibition of HIV-induced cell killing, MT-2 cells
- Type: cell-based, HIV-1 isolates IIIB and/or RF
- assay_setup: Human immunodeficiency virus 1, MT2, 144 h; MT-2 cells (second position), 6 days, 37° C., MTT; read-out: Viral MT-2
hey, just use fulfilled if measured IC50 is less than 2 µg/mL, otherwise not fulfilled

Here are 5 molecules together with their reported answers.
CC(C)(C)N(CCO)C(=O)c1ccccc1CCC(O)Cc1ccccc1C(=O)N(CCO)C12CCCCC1CCC2 (centres unmarked)
not fulfilled
CC(C)(C)N(CCO)C(=O)c1ccccc1CCC(=O)C(F)(F)c1ccccc1C(=O)N(CCO)C(C)(C)c1ccccc1
not fulfilled
CC(C)(C)N(CCO)C(=O)c1ccccc1CCC(O)Cc1ccccc1C(=O)N(CCO)C(C)(C)C (centres unmarked)
not fulfilled
Cc1ccc(CC(O)CCc2ccccc2C(=O)N(CCO)C(C)(C)C)c(C(=O)N(CCO)C(C)(C)c2ccccc2)c1 (centres unmarked)
not fulfilled
CCC1(N(CCO)C(=O)c2ccccc2CCC(O)Cc2ccc(C)cc2C(=O)N(CC(CO)CO)C(C)(C)c2ccccc2)CCCC1 (centres unmarked)
fulfilled

-- ask Record CCC1(N(CCO)C(=O)c2ccccc2CCC(O)Cc2ccc(C)cc2C(=O)N(CCOC(=O)[C@@H](N)C(C)C)C(C)(C)c2ccccc2)CCCC1 (some centres unmarked) : is its IC50 strictly below 2 µg/mL?
-- reply fulfilled

-- ask Confirm or reject: IC50 of CC(C)(C)N(CCO)C(=O)c1ccccc1CCC(O)Cc1ccccc1C(=O)N(CCO)C(C)(C)c1ccc2ccccc2c1 (centres unmarked) lies strictly below 2 µg/mL
-- reply not fulfilled

-- ask Does this molecule meet the criterion IC50 < 2 µg/mL? CCC1(N(CCO)C(=O)c2ccccc2CCC(O)Cc2ccccc2C(=O)N(CCO)C(CC)(CC)c2ccccc2)CCCC1 (centres unmarked)
-- reply fulfilled

-- ask Does this molecule meet the criterion IC50 < 2 µg/mL? CC(C)(C)N(CCO)C(=O)c1ccccc1CCC(O)Cc1ccccc1C(=O)N(CCO)C1(C)CCCC1 (centres unmarked)
-- reply not fulfilled

-- ask Hello, I'm reviewing records and need to know if IC50 of CCC1(N(CCO)C(=O)c2ccccc2CCC(O)Cc2ccc(C)cc2C(=O)N(CCO)C(CC)(CC)c2ccccc2)CCCC1 (centres unmarked) is below 2 µg/mL. Could you check?
-- reply fulfilled

-- ask Identify whether the molecule CCC1(N(CCO)C(=O)c2ccccc2CCC(O)Cc2ccc(C)cc2C(=O)N(CCO)C(C)(C)c2ccc(O)cc2)CCCC1 (centres unmarked) records IC50 below 2 µg/mL.
-- reply fulfilled

These measurements were taken from patent US5863950A.
